Values were extracted from paper PMC3723252.

Assay: Cytotoxicity assay (MTT, 48 h)
Format: cell-based
Conditions: African green monkey, Vero cells
experimentalReadout: CC50 at 48 h (µM)
Report only the number, with the unit µM understood.

Prompt: Tell me CC50 at 48 h reported for O=C(Cn1ccnc1[N+](=O)[O-])NCc1ccccc1 [Bnz, Benznidazole, reference compound]
Response: 82.8

* * *

The entries below are paired with their reported pIC50.
Test system: Trypanosoma cruzi epimastigotes (Tulahuen strain)
Experiment: Growth inhibition of epimastigotes (cell counting, 4 days)
Type: cell-based
Details: 96 h, read-out: Epimastigotes IC50
Experimental: Trypanosoma cruzi epimastigotes (Tulahuen strain) were grown as previously described. Bloodstream trypomastigotes were obtained from infected CF1 mice by cardiac puncture. Tulahuen strain expressing the β-galactosidase gene was kindly provided by Dr Buckner (University of Washington, USA). Cells growth was assessed by counting the number of cells per mL of culture using a Neubauer chamber and was expressed as cellular density (CD). […]
Keep it numeric: pIC50 is minus log10 of the concentration in mol/L.

Answered cases to consult:
INSERT INTO measurements (compound, reported) VALUES
  ('O=c1c2ccccc2c(C(=S)Nc2ccc(Cl)cc2)c2n1CCN2', 5.25),
  ('Cc1ccc(NC(=S)c2c3n(c(=O)c4ccccc24)CCN3)cc1', 5.82),
  ('O=c1c2ccccc2c(C(=S)Nc2ccccc2)c2n1CCN2', 5.83);

API: the following record is the query input.
Prompt: Look up and state reported pIC50 for O=C(Cn1ccnc1[N+](=O)[O-])NCc1ccccc1 [Bnz, Benznidazole, reference compound]
Response: 5.26
